# Test system: two-spotted spider mite (Tetranychus urticae)
# METHOD: Foliar test against two-spotted spider mite on pinto bean seedlings
# Type: in vivo
# MEASUREMENT_PARAMETERS: foliar spray, 100 ppm, 72 hours
VALUE_KIND: Percent Control (%)
Write the answer as a number in %, unit excluded.

Reported Percent Control of CN1CCC=C(c2cnsn2)C1 [Compound 4] : 100

// Percent Control value for C#CCOc1nsnc1C1=CCCN(C)C1 [Compound 66] : 52

Notebook: Clc1nsnc1C1CN2CCC1CC2 (stereo not shown) [Compound 102] , Percent Control read as 13

// CN1CCC=C(c2nsnc2F)C1 [Compound 23] : Percent Control value = 98

The measured values listed here are drawn from patent US20060241097A1.
